Biological target: Solute carrier family 22 member 6 (Homo sapiens, UniProt Q4U2R8)
Sequence (Q4U2R8 whole entry): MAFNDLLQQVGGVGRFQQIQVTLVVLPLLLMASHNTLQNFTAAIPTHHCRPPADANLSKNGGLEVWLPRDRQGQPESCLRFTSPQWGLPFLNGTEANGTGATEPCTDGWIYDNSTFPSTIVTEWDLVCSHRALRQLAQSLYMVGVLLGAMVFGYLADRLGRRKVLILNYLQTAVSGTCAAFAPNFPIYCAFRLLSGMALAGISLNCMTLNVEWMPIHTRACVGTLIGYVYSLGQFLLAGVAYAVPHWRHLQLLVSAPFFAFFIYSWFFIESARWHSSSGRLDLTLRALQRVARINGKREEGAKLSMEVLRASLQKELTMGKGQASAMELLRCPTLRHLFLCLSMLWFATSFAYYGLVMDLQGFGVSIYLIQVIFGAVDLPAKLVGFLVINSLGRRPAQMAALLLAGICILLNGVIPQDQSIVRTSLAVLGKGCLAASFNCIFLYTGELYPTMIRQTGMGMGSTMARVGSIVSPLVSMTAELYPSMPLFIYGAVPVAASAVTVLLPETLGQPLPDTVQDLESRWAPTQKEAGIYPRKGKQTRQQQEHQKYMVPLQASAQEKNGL
Experiment: Inhibition of human OAT1 expressed in HEK293 cells using p-aminohippuric acid as substrate preincubated for 30 mins followed by substrate addition and measured after 1 to 4 mins
Type: cell-based
recorded-endpoint: pIC50
FYI, pIC50 means -log10 of a concentration in mol per litre.

Which pIC50 value is on record for "COc1c(F)c(F)cc(-c2c(C(=O)O)sc3cc(F)ccc23)c1F" ?
5.48
